So I've got a bunch of substances here, and I need their YAP1 (% UTC) values.
tested on: Yap1 mRNA; experiment: Antisense inhibition of human Yap1 in A-431 cells by cEt gapmers, single dose (Example 4, RTS4814); assay type: cell-based; conditions: Table 15; A-431 cells, 5,000 cells per well, free uptake, 2,000 nM, approximately 48 hours; RTS4814; normalized to RIBOGREEN; Yap1 mRNA relative to untreated control; * = targets amplicon region of primer probe set
Strand notation (5' to 3'): a small letter for the sugar, then the base; units joined by * are phosphorothioate-linked, units joined directly phosphodiester-linked; [ ] holds rarer units or linkages, { } end groups; capitals alone tell only the bases. k = constrained ethyl (cEt); [5mC] = 5-methylcytosine; d = 2'-deoxy (DNA)
Kindly format the answer as number then unit.

Input: Can you look up the measured YAP1 (% UTC) of 1075681 (kT*kA*kA*dT*dT*dA*dT*dT*dA*d[5mC]*d[5mC]*d[5mC]*d[5mC]*kT*kT*k[5mC]; antisense) [Compound 1075681] for me?
Output: 37 % UTC

Input: Name the recorded YAP1 (% UTC) for 1075169 (antisense kA*kA*kA*dA*d[5mC]*dG*dG*dA*dG*dT*dA*dA*dT*kG*k[5mC]*k[5mC]) [Compound 1075169] .
Output: 39 % UTC

Input: Please report the recorded YAP1 (% UTC) for 1074721 (antisense kG*kG*kA*dA*dG*dA*dT*d[5mC]*dT*d[5mC]*d[5mC]*dA*dT*kA*kT*kT) [Compound 1074721] .
Output: 43 % UTC

Input: Tell me the measured YAP1 (% UTC) of 1075617 (kT*kA*kA*dG*dA*dA*d[5mC]*dG*dA*d[5mC]*dA*dT*dA*kT*kG*k[5mC]; antisense) [Compound 1075617] , please.
Output: 27 % UTC

Input: Which YAP1 (% UTC) is listed for 1075105 (antisense kA*kA*kT*dT*dA*dT*dA*dA*dG*dG*dT*d[5mC]*d[5mC]*kT*kA*k[5mC]) [Compound 1075105] ?
Output: 42 % UTC

Input: Which YAP1 (% UTC) reading was recorded for the substance 1076161 (kT*k[5mC]*kT*dT*dA*dT*dA*d[5mC]*dT*dA*dG*dT*dA*k[5mC]*kG*kG; antisense) [Compound 1076161] ?
Output: 14 % UTC

Input: Query: YAP1 (% UTC); subject: 1076225 (kA*kT*kA*dT*dA*dA*dA*d[5mC]*d[5mC]*dT*dT*dG*d[5mC]*kT*kA*k[5mC]; antisense) [Compound 1076225]
Output: 66 % UTC

Input: Any idea what YAP1 (% UTC) was measured for 1075297 (kG*kT*kT*dA*dA*dT*dT*dA*dT*dA*dA*dG*d[5mC]*kT*kG*kT; antisense) [Compound 1075297] ?
Output: 10 % UTC

Input: So what does the record say about YAP1 (% UTC) for 1075361 (kT*k[5mC]*kT*dT*dA*dA*dG*dG*dG*dA*dA*dT*dG*kT*kA*kT; antisense) [Compound 1075361] ?
Output: 69 % UTC

Input: YAP1 (% UTC) lookup needed for 1074529 (kG*k[5mC]*kA*dG*dA*d[5mC]*dT*dG*d[5mC]*d[5mC]*d[5mC]*d[5mC]*dA*kA*k[5mC]*k[5mC]; antisense) [Compound 1074529] , thanks.
Output: 50 % UTC

Input: Name the recorded YAP1 (% UTC) for 1074369 (antisense kT*kG*kA*dT*dA*dG*dT*dA*dT*d[5mC]*dA*d[5mC]*d[5mC]*kT*kG*kT) [Compound 1074369] .
Output: 19 % UTC

Input: Can you share its YAP1 (% UTC)? I mean this substance: 1074817 (k[5mC]*kT*kG*dA*dA*dT*dA*dT*dT*dG*d[5mC]*d[5mC]*dA*k[5mC]*k[5mC]*k[5mC]; antisense) [Compound 1074817]
Output: 8 % UTC

Input: Field request: YAP1 (% UTC) | item: 1074753 (kT*kA*k[5mC]*dA*dT*dT*dA*dG*dG*dA*dA*d[5mC]*dA*kA*kG*kG; antisense) [Compound 1074753]
Output: 4 % UTC

Input: I have this substance here, 1075201 (antisense k[5mC]*kT*kT*dT*dA*dA*dA*dG*d[5mC]*d[5mC]*d[5mC]*dT*dA*kA*kT*kT) [Compound 1075201] , and I need its recorded YAP1 (% UTC).
Output: 114 % UTC

Input: Can you look up the measured YAP1 (% UTC) of 1074209 (antisense k[5mC]*k[5mC]*kG*dG*dA*dG*d[5mC]*d[5mC]*dT*d[5mC]*dA*dT*dG*kG*kG*k[5mC]) [Compound 1074209] for me?
Output: 72 % UTC

Input: Find the recorded YAP1 (% UTC) belonging to 1074785 (kA*k[5mC]*k[5mC]*dA*dT*dA*dA*dG*dT*dA*dG*dA*dT*k[5mC]*kT*kA; antisense) [Compound 1074785] and report it.
Output: 10 % UTC

Input: Form field: reported YAP1 (% UTC) of 1076129 (k[5mC]*kA*kT*dA*dA*dA*d[5mC]*d[5mC]*dT*dT*dA*dG*dT*k[5mC]*k[5mC]*kT; antisense) [Compound 1076129]
Output: 26 % UTC

Input: Reported YAP1 (% UTC), substance 1076289 (kA*kA*k[5mC]*dG*dG*dA*d[5mC]*dA*dA*d[5mC]*dT*dT*dA*kA*k[5mC]*kA; antisense) [Compound 1076289] : ____
Output: 21 % UTC

Input: So what's the measured YAP1 (% UTC) for this one? 1076321 (k[5mC]*kA*kA*dT*dA*dT*d[5mC]*dA*d[5mC]*dT*dT*dG*dG*kG*k[5mC]*k[5mC]; antisense) [Compound 1076321]
Output: 63 % UTC

Input: Suppose we examine the substance 1075745 (k[5mC]*kT*kT*d[5mC]*dA*dA*dA*dA*dG*d[5mC]*dA*d[5mC]*dG*kG*kT*kG; antisense) [Compound 1075745] ; what YAP1 (% UTC) value has been reported?
Output: 58 % UTC

Input: Give its YAP1 (% UTC) value. Item: 1075937 (kA*k[5mC]*kT*dT*dA*dT*dA*dT*dT*d[5mC]*dT*d[5mC]*dT*k[5mC]*k[5mC]*kG; antisense) [Compound 1075937]
Output: 36 % UTC

Input: Which YAP1 (% UTC) is listed for 1074177 (antisense k[5mC]*k[5mC]*kT*d[5mC]*d[5mC]*d[5mC]*d[5mC]*d[5mC]*dG*dA*d[5mC]*dG*d[5mC]*kG*k[5mC]*kA) [Compound 1074177] ?
Output: 69 % UTC

Input: Give its YAP1 (% UTC) value. Item: 1074945 (antisense k[5mC]*kA*kA*dA*dA*d[5mC]*d[5mC]*d[5mC]*dT*dT*dT*dG*dG*kT*k[5mC]*kT) [Compound 1074945]
Output: 74 % UTC

Input: Item under review: 1074113 (k[5mC]*kT*k[5mC]*d[5mC]*dA*dA*d[5mC]*dT*d[5mC]*d[5mC]*d[5mC]*dT*dT*kG*kA*k[5mC]; antisense) [Compound 1074113] . Reported YAP1 (% UTC)?
Output: 61 % UTC
